test: Structure and thermal stability (Tm) by circular dichroism; type: physicochemical; conditions: circular dichroism, 0.1 mg/ml, 20° C. to 95° C. at 1° C./min
quantity.name: Tm (melting temperature)

• D-34-4: EGF mutant, 34th valine substituted with lysine (SEQ ID NO: 78) (CNCKVGYIGE) = (76° C.)
• C-25-1: EGF mutant, 25th alanine substituted with serine (SEQ ID NO: 72) (NSDSECPLSHDGYCLHDGVCMYIESLDKYACNCVVGYIGERCQYRDLKWWELR; not fully specified; Epidermal growth factor; UniProt P01133 971-1023, looked up, variant A25S) = (76° C.)

* * *

test: Circular dichroism after incubation at 60° C.; format: physicochemical; conditions: 0.3 mg/ml, 20 mM sodium phosphate pH 5.5, 60° C., five days
quantity.name: Percentage to wild-type EGF (CD signal value at 200 nm) (%)
Provide the reading as a plain figure in %.

* C-25-1: EGF mutant, 25th alanine substituted with serine (SEQ ID NO: 72) (NSDSECPLSHDGYCLHDGVCMYIESLDKYACNCVVGYIGERCQYRDLKWWELR; not fully specified; Epidermal growth factor; UniProt P01133 971-1023, looked up, variant A25S) | 106.38
* D-35-6: EGF mutant, 35th valine substituted with glutamic acid (SEQ ID NO: 80) (CNCVEGYIGE) | 100.14
* D-34-2: EGF mutant, 34th valine substituted with glutamic acid (SEQ ID NO: 76) (NSDSECPLSHDGYCLHDGVCMYIEALDKYACNCEVGYIGERCQYRDLKWWELR; not fully specified; Epidermal growth factor; UniProt P01133 971-1023, looked up, variant V34E) | 111.10

**Query** Which Percentage to wild-type EGF (CD signal value at 200 nm) reading was recorded for the substance B-19-3: EGF mutant, 19th valine substituted with glutamic acid (SEQ ID NO: 68) (NSDSECPLSHDGYCLHDGECMYIEALDKYACNCVVGYIGERCQYRDLKWWELR; not fully specified; Epidermal growth factor; UniProt P01133 971-1023, looked up, variant V19E) ?
**Result** 84.22

* * *

assay: Structure and thermal stability (Tm) by circular dichroism; format: physicochemical; conditions: circular dichroism 190-250 nm, 0.1 mg/ml, 20 mM sodium phosphate pH 5.5, 20° C.; versus wild-type EGF
quantity.name: Structure change

- D-35-5: EGF mutant, 35th valine substituted with serine (SEQ ID NO: 79) (CNCVSGYIGE): No change
- E-48-3: EGF mutant, 48th lysine substituted with arginine (SEQ ID NO: 90) (RCQYRDLRWWELR): No change
- D-35-6: EGF mutant, 35th valine substituted with glutamic acid (SEQ ID NO: 80) (CNCVEGYIGE): No change

Hey, just so you know, these numbers are from patent US9102755B2.
